- System: Aspergillus fumigatus
- METHOD: Antifungal activity against Aspergillus fumigatus CGMCC 3.7795 assessed as inhibition of visible microbial growth by NCCLS protocol based method
- Assay type: functional
MEASURED_ENDPOINT: MIC

Measured MIC, CC[C@H](C)[C@@H](Cn1ccnc1)NC(=O)c1ccc(-c2cccc(F)c2)cc1 : > 64 µg/mL

Measured MIC, CC[C@H](C)[C@@H](Cn1ccnc1)NC(=O)c1ccc(-c2ccccc2)cc1 : > 64 µg/mL

Measured MIC, CC(C)OC(=O)C(Cn1ccnc1)NC(=O)c1ccc(-c2ccccc2)cc1 (stereo not drawn) : > 64 µg/mL
